- Target entity: endothelial lipase (EL) (Homo sapiens (Human), UniProt Q9Y5X9)
- Sequence (Q9Y5X9 21-500): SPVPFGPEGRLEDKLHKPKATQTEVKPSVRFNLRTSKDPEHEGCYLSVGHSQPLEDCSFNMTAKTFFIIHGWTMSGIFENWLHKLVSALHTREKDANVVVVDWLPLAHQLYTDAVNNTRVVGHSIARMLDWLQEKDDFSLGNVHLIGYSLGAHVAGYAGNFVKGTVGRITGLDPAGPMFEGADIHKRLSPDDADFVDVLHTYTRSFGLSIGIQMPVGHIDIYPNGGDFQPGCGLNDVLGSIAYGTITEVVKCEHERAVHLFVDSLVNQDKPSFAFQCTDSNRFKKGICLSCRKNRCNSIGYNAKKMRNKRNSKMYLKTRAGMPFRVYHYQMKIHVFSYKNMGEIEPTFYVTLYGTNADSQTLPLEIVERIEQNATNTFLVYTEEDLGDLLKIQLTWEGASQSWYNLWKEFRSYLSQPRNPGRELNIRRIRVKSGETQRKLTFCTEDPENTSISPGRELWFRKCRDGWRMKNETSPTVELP
pIC50: −log10 of the molar value.
Binary call on pIC50: y from 7 upward, n beneath that.

Does the compound CN1CC(C(=O)NCc2cccc(-c3ccccc3Cl)c2)=C(O)C1=O have recorded pIC50 that is 7 or more?
n

Does the compound C[C@@H](NC(=O)C1=C(O)C(=O)N(C)C1)c1cccc(-c2cccc(C(F)(F)F)c2)c1 have recorded pIC50 that is 7 or more?
n

Does the compound O=C(N[C@H]1CC[C@@H](c2ccccc2)CC1)C1=C(O)C(=O)N(CC(F)(F)C(F)(F)F)C1 have recorded pIC50 that is 7 or more?
n

Does the compound CC(C)CN1CC(C(=O)NCCCCc2nc(-c3ccc(Cl)c(Cl)c3)no2)=C(O)C1=O have recorded pIC50 that is 7 or more?
y

Does the compound O=C(N[C@H]1CC[C@@H](c2ccccc2)CC1)C1=C(O)C(=O)N(CCS(=O)(=O)c2ccccc2)C1 have recorded pIC50 that is 7 or more?
n

Does the compound CN1CC(C(=O)NCc2cccc(-c3ccccc3F)c2)=C(O)C1=O have recorded pIC50 that is 7 or more?
n

Does the compound CC(=O)c1cccc(-c2cccc(CNC(=O)C3=C(O)C(=O)N(C)C3)c2)c1 have recorded pIC50 that is 7 or more?
n

Does the compound CN1CC(C(=O)NCc2cccc(-c3ccc(CNS(C)(=O)=O)cc3)c2)=C(O)C1=O have recorded pIC50 that is 7 or more?
n

Does the compound CN1CC(C(=O)NCc2ccc(OC3CCOCC3)cc2)=C(O)C1=O have recorded pIC50 that is 7 or more?
n

Does the compound CC(=O)NCc1ccc(-c2cccc([C@@H](C)NC(=O)C3=C(O)C(=O)N(C)C3)c2)cc1 have recorded pIC50 that is 7 or more?
n

Does the compound CCN1CC(C(=O)N[C@@H]2CCC(c3ccccc3)c3ccccc32)=C(O)C1=O (stereo partly shown) have recorded pIC50 that is 7 or more?
y

Does the compound CN1CC(C(=O)NCc2ccc(C(=O)N3CCCCC3)cc2)=C(O)C1=O have recorded pIC50 that is 7 or more?
n

Does the compound CNCCCN1CC(C(=O)N[C@H]2CC[C@@H](c3ccccc3)CC2)=C(O)C1=O have recorded pIC50 that is 7 or more?
n
